Data origin, for the record: paper PMC11642016

# System: PANC-1 cells
# measurement.notes: CellTiter-Glo luminescent cell viability assay, PANC-1
# assay.context: PANC-1; 8.3 µM; 72 h; first-set screening; mean ± SD, n = 2
recorded.metric: Cell Viability (% of Control) 8.3 µM

INSERT INTO measurements (compound, target_entity, recorded_metric, observed_measurement) VALUES
  ('NCC#Cc1ccc(CN2C(=O)C3=C(CCN(Cc4cccc(-n5cc(-[c-]6cccc6)nn5)c4)C3)N3CCN=C23)cc1.[Fe+2].c1cc[cH-]c1 [3a]', 'PANC-1 cells', 'Cell Viability (% of Control) 8.3 µM', '88 ± 0 % of Control'),
  ('O=C1C2=C(CCN(Cc3ccc(-n4cc(-[c-]5cccc5)nn4)cc3)C2)N2CCN=C2N1Cc1ccc(C#CCO)cc1.[Fe+2].c1cc[cH-]c1 [1b]', 'PANC-1 cells', 'Cell Viability (% of Control) 8.3 µM', '93 ± 3 % of Control'),
  ('NCC#Cc1cccc(CN2C(=O)C3=C(CCN(Cc4ccc(-n5cc(-[c-]6cccc6)nn5)cc4)C3)N3CCN=C23)c1.[Fe+2].c1cc[cH-]c1 [2a]', 'PANC-1 cells', 'Cell Viability (% of Control) 8.3 µM', '0 ± 0 % of Control'),
  ('NCC#Cc1cccc(CN2C(=O)C3=C(CCN(Cc4cccc(-n5cc(-[c-]6cccc6)nn5)c4)C3)N3CCN=C23)c1.[Fe+2].c1cc[cH-]c1 [4a]', 'PANC-1 cells', 'Cell Viability (% of Control) 8.3 µM', '73 ± 9 % of Control'),
  ('O=C1C2=C(CCN(Cc3ccc(-n4cc(-[c-]5cccc5)nn4)cc3)C2)N2CCN=C2N1Cc1cccc(C#CCO)c1.[Fe+2].c1cc[cH-]c1 [2c]', 'PANC-1 cells', 'Cell Viability (% of Control) 8.3 µM', '95 ± 2 % of Control'),
  ('NCC#Cc1ccc(CN2C(=O)C3=C(CCN(Cc4ccc(-n5cc(-[c-]6cccc6)nn5)cc4)C3)N3CCN=C23)cc1.[Fe+2].c1cc[cH-]c1 [I/A, reference compound]', 'PANC-1 cells', 'Cell Viability (% of Control) 8.3 µM', '39 ± 7 % of Control'),
  ('O=C1C2=C(CCN(Cc3cccc(-n4cc(-[c-]5cccc5)nn4)c3)C2)N2CCN=C2N1Cc1ccc(C#CCO)cc1.[Fe+2].c1cc[cH-]c1 [3c]', 'PANC-1 cells', 'Cell Viability (% of Control) 8.3 µM', '98 ± 1 % of Control');
